- assay.protocol: small-molecule microarray binders of probe aDKK1, primary screen, biochemical, biotinylated probe, 635/667 nm fluorescence (AID 1099);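 also: score merges 667nm spot fluorescence with signal to noise across triplicate slides; reference of the scale not given here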
- conditions: higher = more signal
# label = True if composite z-score >= 0.1 else False

compound | group.label
CCCCCCc1nc(-c2cc(C)c(OC)c(C)c2)cc2c1[Si](C(C)C)(C(C)C)O[C@H]2c1ccccc1 | False
C[C@H]1NC(=O)[C@@H](C)NC(=O)[C@@]23C(=O)N[C@@H](Cc4ccccc4)C2[C@H](C)[C@@]2(C)O[C@H]2C3/C=C/C/C=C\CNC1=O (some centres not stated) | False
CCCC[C@H]1OB(O)C[C@H]2C1=C(COC)C[C@H]1C(=O)N(Cc3ccccc3)C(=O)[C@H]12 | False
C=C(CCCC)/C(=C/C[C@@H](OC(=O)c1ccncc1)c1ccc(CO)o1)c1cnc2ccccc2c1 | True
C=C[C@H](OC)[C@@H](OC(=O)Nc1ccc(SC)cc1)c1ccc(OC)c(O)c1 | False
O=C1O[C@@H](c2ccccc2)[C@@H](c2ccccc2)N2[C@@H](c3ccc(O)cc3)[C@]3(C(=O)Nc4ccccc43)[C@@H](C(=O)N3CCN(c4ncccn4)CC3)[C@H]12 | True
[N-]=[N+]=NCc1ccccc1C[C@]1(C(N)=O)N=C(c2ccc(OCCCO)cc2)O[C@H]1c1ccccc1CN=[N+]=[N-] | True
